Just for reference, PubChem BioAssay (NCI) is where these values come from.

- System: SK-MEL-28 melanoma
- experimentalProtocol: NCI-60 one-dose screen, 48 h
- conditionNotes: 10 µM
- Protocol: Growth inhibition of the SK-MEL-28 human tumor cell line is measured as a screen for anti-cancer activity. Cells are grown in 96 well plates and exposed to the test compound for 48 hours. Compounds are tested at a single concentration, which is 10^-5 M for most compounds. The reported endpoint is percent growth (GI% or GIPRCNT), where numbers from 0 - 100% represent growth inhibition, and numbers from -100% - 0 represent cell death. For example, a value of 40 represents 60% growth inhibition. […]
About 83,000 compounds went through this panel and 20% of them were active in at least one assay; those are over-represented in the sample as a whole. Activity calls are given as the source filed them. How the source made its calls: active means growth percent below 10; inactive means the rest.
Classes used: 1.0 (active), 0.0 (inactive)

molecule: CCCCCCC(O)(c1ccc(F)cc1)C(CN1CCOCC1)c1ccccc1 (configuration not stated)
group: 0.0
//
molecule: O=c1oc2ccc(F)cc2c(=O)n1-c1ccc(Br)cc1F
group: 0.0
//
molecule: CN1C(=O)N(C)C2(c3ccccc3)OC(=S)NC12c1ccccc1 (configuration not stated)
group: 0.0
//
molecule: CC(=Nc1ccccc1)C1=C(O)C(Cc2ccc(F)cc2)NC1=O (configuration not stated)
group: 0.0
//
molecule: O=c1oc2ccc(I)cc2c(=O)n1-c1ccc(I)cc1F
group: 1.0
//
molecule: O=c1oc2ccc(Br)cc2c(=O)n1-c1ccc(F)cc1F
group: 0.0
//
molecule: CCCCN1CCN(c2ccc3nc(-c4ccc5nc(-c6ccc(OC)c(OC)c6)[nH]c5c4)[nH]c3c2)CC1
group: 1.0
//
molecule: O=c1oc2ccc(Br)cc2c(=O)n1-c1ccc(Cl)cc1F
group: 1.0
//
molecule: COc1c2ccoc2c(/C=C/C=O)c2oc(-c3ccccc3)cc(=O)c12
group: 0.0
//
molecule: O=C(Nc1ccc(Cl)cc1)N1CCN(c2ccc3nncn3n2)CC1
group: 1.0
//
molecule: CCOc1ccc2nc(C)cc(Nc3ccc(Br)cc3)c2c1
group: 0.0
//
molecule: CC(=O)n1cc(-c2c[nH]c3ccccc23)c(-c2ccc(Cl)cc2)n1
group: 0.0
//
molecule: COc1ccc(CCN2C(=O)/C(=C/c3ccc(C4Oc5ccccc5C5CC(c6cccc(OC)c6)=NN54)cc3)SC2=S)cc1 (configuration not stated)
group: 0.0
//
molecule: COc1cc2nc(NC3CCC3)nc(NC3CCN(C(C)C)CC3)c2cc1OC
group: 0.0
//
molecule: O=C1c2ccc3c4c(ccc(c24)C(=O)N1CCCCO)C(=O)N(CCCCO)C3=O
group: 0.0
//
molecule: O=C(Nc1ccc(Br)cc1F)c1cc(Cl)ccc1O
group: 1.0
//
molecule: c1ccc(CNc2nc(Nc3ccccc3)nc3ccccc23)cc1
group: 1.0
//
molecule: CN1CCN(Cc2ccc(C(=O)Nc3cncc(C#Cc4cnc(N)c5ccccc45)c3)cc2C(F)(F)F)CC1
group: 1.0
//
molecule: O=C1/C(=C/c2ccc(O)cc2)COc2ccc(O)c(O)c21
group: 0.0
//
molecule: O=C1/C(=C/c2cccc(O)c2)COc2ccc(O)cc21
group: 0.0
//
molecule: Brc1ccc(Oc2ccc(Nc3ncnc4onc(-c5ccccc5)c34)cc2)cc1
group: 0.0
//
molecule: COc1ccc(C2c3ccc4ccccc4c3Oc3ncn(CCCn4ccnc4)c(=N)c32)cc1OC (configuration not stated)
group: 0.0

###

- System: OVCAR-3 ovarian
- experimentalProtocol: NCI-60 one-dose screen, 48 h (100 = growth as untreated, 0 = no growth, -100 = all killed)
- conditionNotes: 10 µM unless noted
This is part of a sample that, as a whole, favours compounds with a hit. Of some 83,000 tested, about 20% had one in any assay.
In plain terms, low growth, meaning strictly below 50%, gives 1, and everything else gives -1.

molecule: OCCNc1nc(Nc2ccc(C3=NN(c4cc(Cl)cc(Cl)c4)C(c4ccc(C(F)(F)F)cc4)C3)cc2)nc(N2CCOCC2)n1 (stereo not given)
group: -1

molecule: CCn1c(SCC(=O)Nc2cc(C(F)(F)F)ccc2Cl)nc2ccccc2c1=O
group: -1

molecule: Cc1ccc(S(=O)c2ccc([N+](=O)[O-])c3nonc23)cc1 (stereo not given)
group: -1

molecule: CCn1c(Cc2ccccc2Nc2c(Cl)cccc2Cl)nnc1SCC(=O)NN1C(=O)/C(=C/c2cccc(OC)c2OC)SC1=S
group: -1

molecule: CCOC(=O)C1=C(C)c2ccc(OC)c(OC)c2C1
group: -1

molecule: CC1=C(CC(=O)c2cccc([N+](=O)[O-])c2)C(=O)c2ccccc2C1=O
group: 1

molecule: COC(=O)c1cc2c(n1Cc1ccccc1)-c1oncc1CCC2
group: -1

molecule: CCOC(=O)c1cc2c(n1Cc1cccc(OC)c1)-c1oncc1CCC2
group: 1

molecule: O=C(Nc1ccc(I)cc1F)c1cc(Br)ccc1O
group: 1

molecule: OC(CNC1CCCCC1)Cn1c2ccc(I)cc2c2cc(I)ccc21 (stereo not given)
group: -1

###

Collected growth values appear next to each entry.
- Tested on: SK-MEL-28 melanoma
- experimentalProtocol: NCI-60 one-dose screen, 48 h (100 = growth as untreated, 0 = no growth, -100 = all killed)
- conditionNotes: 10 µM
The panel holds about 83,000 compounds, 20% with a hit somewhere; the sample as a whole holds those more often.

compound: Fc1cccc(COc2ccc(Nc3ncnc4onc(-c5ccccc5)c34)cc2)c1
growth (%): 55.2
--
compound: CCCCc1c(CCC)c(=N)c2ccccc2n1C
growth (%): 72.2
--
compound: c1ccc2c(c1)oc1cc3sccc3nc12
growth (%): 109
--
compound: O=C1NC(=S)NC(=O)C1=Cc1cn(Cc2cn(Cc3cccc4ccccc34)nn2)c2ccccc12
growth (%): 103
--
compound: COC(=O)C1(C)CCC[C@]2(C)[C@H]3C[C@H]4C(C(C)C)=C[C@]3(CC[C@@H]12)[C@H]1[C@@H]4[C@@H](OCC#CCN2CCOCC2)CC[C@@H]1OCC#CCN1CCOCC1 (stereo partly specified)
growth (%): 90.5
--
compound: CCN1CCN(C(=S)SCC(=O)Nc2nc3ccc(C)cc3s2)CC1
growth (%): 108

###

- System: MDA-MB-435 melanoma
- experimentalProtocol: NCI-60 one-dose screen, 48 h (100 = growth as untreated, 0 = no growth, -100 = all killed)
- conditionNotes: 10 µM unless noted
About 83,000 compounds went through this panel and 20% of them were active in at least one assay; those are over-represented in the sample as a whole. The source made the active and inactive calls. Rule for the calls: active = growth percent below 10; inactive = the rest.
Below, each entry is listed alongside its reported growth.

molecule: CC1CCCCN1CCCNC(=O)c1ccc2c(c1)sc1nc(-c3ccc(F)cc3)cn12 (stereo unspecified)
growth: 109% (inactive)
--
molecule: Cc1cccc2c(=O)c3c(sc12)c(NCCCNCCO)nc1ccccc13
growth: 29.5% (inactive)
--
molecule: C1=CC2(C=C1)OC21CCC2(C=CC3(C2)OC3C2CCCCC2)CC1 (stereo unspecified)
growth: 97.4% (inactive)
--
molecule: Cc1ccc(C(=O)c2oc3ccc4c(C)cc(=O)oc4c3c2C)cc1
growth: 29.7% (inactive)
--
molecule: Nc1nc(-c2ccccc2Br)nn1-c1nc2ccccc2s1
growth: 95% (inactive)
--
molecule: Oc1c(C(Nc2ccccn2)c2cccc(Oc3ccccc3)c2)ccc2cccnc12 (stereo unspecified)
growth: -90.1% (active)

###

- System: HCC-2998 colon
- experimentalProtocol: NCI-60 one-dose screen, 48 h (100 = growth as untreated, 0 = no growth, -100 = all killed)
- conditionNotes: 10 µM unless noted
The panel holds about 83,000 compounds, 20% with a hit somewhere; the sample as a whole holds those more often.

compound: O=C(Nc1ccc(C23CC4CC(CC(c5ccccc5)(C4)C2)C3)cc1)c1cccs1
unitTag: %
growth: 74.8

compound: Cn1c(/C=C(\C#N)c2cccc(C(F)(F)F)c2)nc2c(N3CCOCC3)nc(Cl)nc21
unitTag: %
growth: 14

compound: O=Cc1cc2ccccc2nc1Nc1nccs1
unitTag: %
growth: 87.6

compound: Cc1ccc(NC2=CC(=O)C(=O)c3ccccc32)c(C)c1
unitTag: %
growth: 29.1

compound: CC(C)Cn1c2c(c(=S)[nH]c1=O)CCC2
unitTag: %
growth: 123

compound: O=S(=O)(Nc1ncccn1)c1ccc(NC2Nc3nc4ccccc4nc3S2)cc1 (stereo unspecified)
unitTag: %
growth: 108

###

- Test system: IGROV1 ovarian
- experimentalProtocol: NCI-60 one-dose screen, 48 h (100 = growth as untreated, 0 = no growth, -100 = all killed)
- conditionNotes: 10 µM unless noted
Compounds without any hit were thinned out: in the full panel of roughly 83,000, 20% have a hit.
Values of growth strictly less than 90% map to Condition met, and values of at least 90% map to Condition not met.

compound: Cc1cccc2c(=O)c3c(sc12)c(NCCN)nc1ccccc13
target: IGROV1 ovarian
group: Condition met

compound: COc1ccc(-c2cn[nH]c2-c2cc(OC)c(OC)c(OC)c2)cc1OCc1ccccc1
target: IGROV1 ovarian
group: Condition met

compound: COc1cc([C@@H]2NC(=O)NC(C)=C2C(=O)Nc2nc(-c3ccc(Cl)cc3)cs2)ccc1O
target: IGROV1 ovarian
group: Condition not met

compound: Cn1c(=O)n(C)c2cc(CNCCNc3ccnc4cc(Cl)ccc34)ccc21
target: IGROV1 ovarian
group: Condition not met

compound: CCOC(=O)C1=C(C)N=c2s/c(=C\c3ccccc3O)c(=O)n2C1c1ccc(OC)c2ccccc12 (centres undefined)
target: IGROV1 ovarian
group: Condition met

compound: COc1cc(C2C(C#N)=C(N)OC3=C2C(=O)c2ccccc2C3=O)cc(OC)c1OC (centres undefined)
target: IGROV1 ovarian
group: Condition met

compound: COc1ccc(N2C(=O)CC(c3cc(OC)c(OC)c(OC)c3)C3C2=NC(=O)N3C)cc1 (centres undefined)
target: IGROV1 ovarian
group: Condition not met

compound: Clc1ccc(Oc2ccc(Nc3ncnc4onc(-c5ccccc5)c34)cc2)c(Cl)c1
target: IGROV1 ovarian
group: Condition not met
